Hi there, I'd appreciate the recorded fold change (FC) for every entry that follows.
biological target: ATP-dependent translocase ABCB1 (Homo sapiens); assay: Reversal of P-gp-mediated drug resistance in human KBV cells assessed as potentiation of paclitaxel-induced cytotoxicity by measuring fold reduction in paclitaxel IC50 at 5 uM after 72 hrs by MTT assay relative to paclitaxel alone; type: cell-based
Answers are plain numbers.

Guide cases for fold change (FC), answers given:
1. COc1cc2c(cc1OC)CN(CCc1ccc(NC(=O)c3cc(OC)c(OC)cc3NC(=O)c3cnc4ccccc4c3)cc1)CC2 : 75.95
2. Cl.Cl.Cl.O[C@@H](COc1cccc2ncccc12)CN1CCN([C@@H]2c3ccccc3[C@@H]3[C@H](c4ccccc42)C3(F)F)CC1 [ZOSUQUIDAR TRIHYDROCHLORIDE] : 32.5

Okay, now this compound:
Any idea what fold change (FC) was measured for CN(C)CCCOC(=O)[C@]12CCC(C)(C)C[C@H]1C1=CC[C@@H]3[C@@]4(C)Cc5nccnc5[C@@](C)(CO)[C@@H]4CC[C@@]3(C)[C@]1(C)CC2 ?
32.5

###

biological target: ATP-dependent translocase ABCB1 (Homo sapiens, UniProt P08183); experiment: Reversal of P-gp-mediated drug resistance in human KBV cells assessed as potentiation of paclitaxel-induced cytotoxicity by measuring cell survival at 5 uM after 72 hrs by MTT assay (reference value: 98 +/- 19%); format: cell-based
Sequence (P08183 whole entry): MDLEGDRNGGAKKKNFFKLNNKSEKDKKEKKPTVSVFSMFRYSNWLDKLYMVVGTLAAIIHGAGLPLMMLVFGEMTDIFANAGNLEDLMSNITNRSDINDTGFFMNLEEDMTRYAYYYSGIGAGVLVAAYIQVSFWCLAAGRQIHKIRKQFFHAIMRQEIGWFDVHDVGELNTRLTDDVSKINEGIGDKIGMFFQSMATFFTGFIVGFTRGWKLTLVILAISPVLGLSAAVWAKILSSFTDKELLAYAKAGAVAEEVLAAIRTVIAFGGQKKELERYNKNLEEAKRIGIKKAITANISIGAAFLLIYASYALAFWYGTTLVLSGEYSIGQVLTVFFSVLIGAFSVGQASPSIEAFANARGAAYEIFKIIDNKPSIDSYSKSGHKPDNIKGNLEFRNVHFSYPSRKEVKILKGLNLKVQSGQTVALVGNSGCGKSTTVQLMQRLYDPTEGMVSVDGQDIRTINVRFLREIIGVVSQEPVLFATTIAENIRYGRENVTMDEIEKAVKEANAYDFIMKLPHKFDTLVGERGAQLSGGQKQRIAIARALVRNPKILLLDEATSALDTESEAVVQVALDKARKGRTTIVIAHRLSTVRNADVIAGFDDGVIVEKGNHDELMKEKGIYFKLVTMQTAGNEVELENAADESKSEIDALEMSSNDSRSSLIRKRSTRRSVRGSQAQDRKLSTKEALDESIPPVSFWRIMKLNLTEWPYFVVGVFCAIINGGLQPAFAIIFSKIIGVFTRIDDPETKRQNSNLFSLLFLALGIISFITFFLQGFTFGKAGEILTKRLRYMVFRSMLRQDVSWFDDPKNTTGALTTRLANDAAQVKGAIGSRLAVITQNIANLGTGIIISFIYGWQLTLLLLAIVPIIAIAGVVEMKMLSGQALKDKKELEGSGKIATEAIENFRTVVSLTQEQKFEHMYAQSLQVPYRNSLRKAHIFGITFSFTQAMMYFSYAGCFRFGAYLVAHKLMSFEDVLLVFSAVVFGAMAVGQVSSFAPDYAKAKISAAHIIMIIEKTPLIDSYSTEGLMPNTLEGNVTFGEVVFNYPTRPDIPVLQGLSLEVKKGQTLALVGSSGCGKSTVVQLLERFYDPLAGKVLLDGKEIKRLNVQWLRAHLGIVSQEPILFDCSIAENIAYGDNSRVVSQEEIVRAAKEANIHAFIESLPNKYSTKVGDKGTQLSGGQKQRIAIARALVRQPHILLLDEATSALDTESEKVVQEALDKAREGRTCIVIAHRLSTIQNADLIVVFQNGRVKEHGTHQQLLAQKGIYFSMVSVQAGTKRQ
measure-name: Survival (%)
One number for each entry, in %.

Guide cases for Survival, answers given:
1. CSCC[C@H](NC(=O)[C@]12CCC(C)(C)C[C@H]1C1=CC[C@@H]3[C@@]4(C)Cc5nccnc5[C@@](C)(CO)[C@@H]4CC[C@@]3(C)[C@]1(C)CC2)C(=O)O : 94
2. CC1(C)CC[C@]2(C(=O)On3nnc4cccnc43)CC[C@]3(C)C(=CC[C@@H]4[C@@]5(C)CC[C@H](O)[C@@](C)(CO)[C@@H]5CC[C@]43C)[C@@H]2C1 : 115

Okay, now this molecule:
Any idea what Survival was measured for COC(=O)CCC(=O)NOC(=O)[C@]12CCC(C)(C)C[C@H]1C1=CC[C@@H]3[C@@]4(C)Cc5nccnc5[C@@](C)(CO)[C@@H]4CC[C@@]3(C)[C@]1(C)CC2 ?
32

###

assay: Cytotoxicity against human KBV cells assessed as cell survival at 5 uM after 72 hrs by MTT assay relative to control; type: cell-based; settings: read-out: Survival
Hi there, I'd appreciate the recorded viability at 72 h, 5 µM for every entry that follows.
Answers are plain numbers, in %.

Guide cases for viability at 72 h, 5 µM, answers given:
1) CC1(C)CC[C@]2(C(=O)On3nnc4ccccc43)CC[C@]3(C)C(C(=O)C[C@@H]4[C@@]5(C)CCC(=O)[C@@](C)(CO)[C@@H]5CC[C@]43C)[C@@H]2C1 (stereo not given in full) : 110
2) CC(C)C[C@H](NC(=O)[C@]12CCC(C)(C)C[C@H]1C1=CC[C@@H]3[C@@]4(C)Cc5nccnc5[C@@](C)(CO)[C@@H]4CC[C@@]3(C)[C@]1(C)CC2)C(=O)O : 130

Could I get viability at 72 h, 5 µM for every one of these entries?
1. CC1(C)CC[C@]2(C(=O)ONC(=O)CCC(=O)O)CC[C@]3(C)C(=CC[C@@H]4[C@@]5(C)Cc6nccnc6[C@@](C)(CO)[C@@H]5CC[C@]43C)[C@@H]2C1
2. CC1(C)CC[C@]2(C(=O)NCC(=O)O)CC[C@]3(C)C(=CC[C@@H]4[C@@]5(C)Cc6nccnc6[C@@](C)(CO)[C@@H]5CC[C@]43C)[C@@H]2C1
3. CC1(C)CC[C@]2(C(=O)O)CC[C@]3(C)C(C(=O)C[C@@H]4[C@@]5(C)CCC(=O)[C@@](C)(CO)[C@@H]5CC[C@]43C)[C@@H]2C1 (stereo not given in full)
4. CC1(C)CC[C@]2(C(=O)OCCCOC(=O)[C@]34CCC(C)(C)C[C@H]3C3=CC[C@@H]5[C@@]6(C)CC[C@H](O)[C@@](C)(CO)[C@@H]6CC[C@@]5(C)[C@]3(C)CC4)CC[C@]3(C)C(=CC[C@@H]4[C@@]5(C)CC[C@H](O)[C@@](C)(CO)[C@@H]5CC[C@]43C)[C@@H]2C1
5. CC1(C)CC[C@]2(C(=O)On3nnc4cccnc43)CC[C@]3(C)C(=CC[C@@H]4[C@@]5(C)CC[C@H](O)[C@@](C)(CO)[C@@H]5CC[C@]43C)[C@@H]2C1
6. CN(C)CCCOC(=O)[C@]12CCC(C)(C)C[C@H]1C1=CC[C@@H]3[C@@]4(C)Cc5nccnc5[C@@](C)(CO)[C@@H]4CC[C@@]3(C)[C@]1(C)CC2
7. CC1(C)CC[C@]2(C(=O)N3CCC[C@H]3C(=O)O)CC[C@]3(C)C(=CC[C@@H]4[C@@]5(C)Cc6nccnc6[C@@](C)(CO)[C@@H]5CC[C@]43C)[C@@H]2C1
8. CC1(C)CC[C@]2(C(=O)N[C@@H](Cc3ccccc3)C(=O)O)CC[C@]3(C)C(=CC[C@@H]4[C@@]5(C)Cc6nccnc6[C@@](C)(CO)[C@@H]5CC[C@]43C)[C@@H]2C1

1. 89
2. 96
3. 102
4. 107
5. 94
6. 97
7. 121
8. 94
